Tested on: HCI11 (cells of an ER-positive luminal breast cancer xenograft);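 note: PDX cells carrying CMV promoter-driven luciferase, viability read as total photon flux per second by IVIS imaging following D-luciferin, vehicle control 0.1% DMSO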
test.details: cell viability (% of vehicle); higher = less cytotoxic
run.parameters: 10 µM; 72 h
Provide the reported cell viability of each item.
Answers are plain numbers.

// solved cases for cell viability follow
- CC(=O)OCC(=O)[C@@]12N=C(C)O[C@@H]1C[C@H]1[C@@H]3CCC4=CC(=O)C=C[C@]4(C)[C@H]3[C@@H](O)C[C@@]12C [Deflazacort]: 133
- COc1ccc2cc([C@H](C)C(=O)[O-])ccc2c1.[Na+] [Naproxen Sodium]: 106
- Nc1nc(=O)c2ncn(CCC(CO)CO)c2[nH]1 [Penciclovir]: 95.3

// each molecule listed below needs its cell viability
1. CN(N=O)C(=O)NC1C(O)OC(CO)C(O)C1O (configuration not stated) [Streptozocin]
2. Cc1c(OCC(F)(F)F)ccnc1CS(=O)c1nc2ccccc2[nH]1 (configuration not stated) [Dexlansoprazole]

1. 99.5
2. 134

Go through the list and state cell viability for each entry.
1. O=C(c1cc(Cc2n[nH]c(=O)c3ccccc23)ccc1F)N1CCN(C(=O)C2CC2)CC1
2. CCOC(=O)c1c(C)n(C)c2ccc(O)cc12 [Mecarbinate]

1: 129; 2: 90.9
